# test-protocol: clinical
# stated-conditions: human, plasma, oral, 60 mg

| compound | Vd/F, L |
| --- | --- |
| CN(C)C[C@H]1CN(CCc2ccsc2)CC[C@]1(O)c1cccc(C(N)=O)c1 [Compound I] | 6790 |

====

# test-protocol: clinical
# stated-conditions: human, plasma, po, 120 mg, Cmax, Mean, 120 mg DS (Fed), single oral dose, N = 6

| smiles | Cmax (ng/mL) |
| --- | --- |
| CN(C)C[C@H]1CN(CCc2ccsc2)CC[C@]1(O)c1cccc(C(N)=O)c1 | 45.2 |

====

# test-protocol: clinical
# stated-conditions: human, plasma, po, 120 mg

| smiles | AUC(0-inf) / ng·h/mL |
| --- | --- |
| CN(C)C[C@H]1CN(CCc2ccsc2)CC[C@]1(O)c1cccc(C(N)=O)c1 | 245 |

====

# test-protocol: clinical
# stated-conditions: human, plasma, oral, 120 mg, individual Tmax range, with food

| smiles | Tmax |
| --- | --- |
| CN(C)C[C@H]1CN(CCc2ccsc2)CC[C@]1(O)c1cccc(C(N)=O)c1 | 1 to 6 h |

====

# test-protocol: clinical
# stated-conditions: human, plasma, oral, 400 mg

| smiles | Vd/F (L) |
| --- | --- |
| CN(C)C[C@H]1CN(CCc2ccsc2)CC[C@]1(O)c1cccc(C(N)=O)c1 | 20400 |

====

# test-protocol: clinical
# stated-conditions: human, plasma, po, 400 mg, AUC0-t (zero to the last quantifiable concentration), Mean, 400 mg DS (Fasted), single oral dose, N = 6

| smiles | AUC(0-t) |
| --- | --- |
| CN(C)C[C@H]1CN(CCc2ccsc2)CC[C@]1(O)c1cccc(C(N)=O)c1 | 794 ng·h/mL |

====

# test-protocol: clinical
# stated-conditions: human, plasma, po, 120 mg, Tmax, Median, 120 mg DS (Fed), single oral dose, N = 6
measure-name: Tmax (h)

| compound | meas-value |
| --- | --- |
| CN(C)C[C@H]1CN(CCc2ccsc2)CC[C@]1(O)c1cccc(C(N)=O)c1 [Compound I] | 2.58 |

====

# test-protocol: clinical
# stated-conditions: human, plasma, po, 20 mg
measure-name: Cmax (ng/mL)

| smiles | units-label | meas-value |
| --- | --- | --- |
| CN(C)C[C@H]1CN(CCc2ccsc2)CC[C@]1(O)c1cccc(C(N)=O)c1 | ng/mL | 9.69 |

====

# test-protocol: Phase I single ascending dose pharmacokinetics of metabolite Compound II in plasma
# Type: in vivo, human
# stated-conditions: human; metabolite after 200 mg DS (Fasted), single oral dose, plasma

| molecule | Cmax / ng/mL |
| --- | --- |
| CNC[C@H]1CN(CCc2ccsc2)CC[C@]1(O)c1cccc(C(N)=O)c1 [Compound II] | 7.91 |

====

# test-protocol: clinical
# stated-conditions: human, plasma, po, 200 mg
measure-name: AUC(0-inf) (ng·h/mL)

| molecule | units-label | meas-value |
| --- | --- | --- |
| CN(C)C[C@H]1CN(CCc2ccsc2)CC[C@]1(O)c1cccc(C(N)=O)c1 [Compound I] | ng·h/mL | 446 |

====

# test-protocol: clinical
# stated-conditions: human, plasma, po, 400 mg

| compound | units-label | AUC(0-inf) |
| --- | --- | --- |
| CN(C)C[C@H]1CN(CCc2ccsc2)CC[C@]1(O)c1cccc(C(N)=O)c1 [Compound I] | ng·h/mL | 832 |

====

# test-protocol: clinical
# stated-conditions: human, plasma, oral, 120 mg, individual Tmax range, without food

| molecule | Tmax |
| --- | --- |
| CN(C)C[C@H]1CN(CCc2ccsc2)CC[C@]1(O)c1cccc(C(N)=O)c1 [Compound I] | 2 to 3 h |

====

# test-protocol: clinical
# stated-conditions: human, plasma, po, 60 mg, AUC0-last (zero to 24 hours postdose), Mean, 60 mg DS (Fasted), single oral dose, N = 6
measure-name: AUC(0-t) (ng·h/mL)

| smiles | meas-value |
| --- | --- |
| CN(C)C[C@H]1CN(CCc2ccsc2)CC[C@]1(O)c1cccc(C(N)=O)c1 | 71.6 |

====

# test-protocol: clinical
# stated-conditions: human, plasma, po, 120 mg, AUC0-last (zero to 24 hours postdose), Mean, 120 mg DS (Fed), single oral dose, N = 6
measure-name: AUC(0-t) (ng·h/mL)

| smiles | measure-name | meas-value |
| --- | --- | --- |
| CN(C)C[C@H]1CN(CCc2ccsc2)CC[C@]1(O)c1cccc(C(N)=O)c1 | AUC(0-t) | 166 |

====

# test-protocol: Phase I single ascending dose pharmacokinetics of metabolite Compound II in plasma
# Format: in vivo, human
# stated-conditions: human; metabolite after 400 mg DS (Fasted), single oral dose, plasma; read-out: AUC0-inf, Mean

| compound | AUC(0-inf) |
| --- | --- |
| CNC[C@H]1CN(CCc2ccsc2)CC[C@]1(O)c1cccc(C(N)=O)c1 [Compound II] | 28.7 ng·h/mL |

====

# test-protocol: clinical
# stated-conditions: human, plasma, po, 20 mg

| smiles | Tmax [h] |
| --- | --- |
| CN(C)C[C@H]1CN(CCc2ccsc2)CC[C@]1(O)c1cccc(C(N)=O)c1 | 2.5 |

====

# test-protocol: Phase I single ascending dose pharmacokinetics of metabolite Compound II in plasma
# Type: in vivo, human
# stated-conditions: human, plasma, po, 200 mg, metabolite after 200 mg DS (Fasted), single oral dose, plasma; read-out: AUC0-t (zero to the time of the last quantifiable concentration), Mean

| smiles | AUC(0-t) |
| --- | --- |
| CNC[C@H]1CN(CCc2ccsc2)CC[C@]1(O)c1cccc(C(N)=O)c1 | 8.77 ng·h/mL |

====

# test-protocol: clinical
# stated-conditions: human, plasma, po, 200 mg
# From the text: The study comprised a single ascending dose (SAD), sequential cohort study, incorporating a food effect (FE) evaluation. Up to 40 subjects were to be studied in 5 cohorts (Cohorts A1 to A5), each cohort consisting of 8 subjects. […] The actual blood sampling dates and times relative to dosing time were listed by subject and nominal sampling time, with time deviation calculated, for all subjects with available plasma concentration data. […]
measure-name: half-life (h)

| smiles | measure-name | meas-value |
| --- | --- | --- |
| CN(C)C[C@H]1CN(CCc2ccsc2)CC[C@]1(O)c1cccc(C(N)=O)c1 | half-life | 29.4 |

====

# test-protocol: clinical
# stated-conditions: human, plasma, po, 400 mg
# Source text: The study comprised a single ascending dose (SAD), sequential cohort study, incorporating a food effect (FE) evaluation. Up to 40 subjects were to be studied in 5 cohorts (Cohorts A1 to A5), each cohort consisting of 8 subjects. […] The actual blood sampling dates and times relative to dosing time were listed by subject and nominal sampling time, with time deviation calculated, for all subjects with available plasma concentration data. […]

| smiles | units-label | Tmax |
| --- | --- | --- |
| CN(C)C[C@H]1CN(CCc2ccsc2)CC[C@]1(O)c1cccc(C(N)=O)c1 | h | 1.5 |

====

# test-protocol: clinical
# stated-conditions: human, plasma, po, 20 mg, AUC0-last (zero to 24 hours postdose), Mean, 20 mg DS (Fasted), single oral dose, N = 6

| smiles | units-label | AUC(0-t) |
| --- | --- | --- |
| CN(C)C[C@H]1CN(CCc2ccsc2)CC[C@]1(O)c1cccc(C(N)=O)c1 | ng·h/mL | 16.5 |

====

# test-protocol: clinical
# stated-conditions: human, plasma, oral, 120 mg, median Tmax, without food
# Experimental: The reference treatment i fasted condition for all comparisons. Eight subjects in Cohort A3 participated in a 2-period treatment design in which they were assessed for the single-dose of drug substance in a Fasted condition and in a Fed condition. […]

| molecule | units-label | Tmax |
| --- | --- | --- |
| CN(C)C[C@H]1CN(CCc2ccsc2)CC[C@]1(O)c1cccc(C(N)=O)c1 [Compound I] | h | 2.3 |

====

# test-protocol: clinical
# stated-conditions: human, plasma, oral, 120 mg
measure-name: Vd/F

| smiles | meas-value |
| --- | --- |
| CN(C)C[C@H]1CN(CCc2ccsc2)CC[C@]1(O)c1cccc(C(N)=O)c1 | 12300 L |

====

# test-protocol: clinical
# stated-conditions: human, plasma, oral, 120 mg, AUC0-last (zero to 24 hours postdose), GLSM, 120 mg DS (Fasted), n = 6
measure-name: AUC(0-t) (ng·h/mL)

| smiles | meas-value |
| --- | --- |
| CN(C)C[C@H]1CN(CCc2ccsc2)CC[C@]1(O)c1cccc(C(N)=O)c1 | 202 |

====

# test-protocol: clinical
# stated-conditions: human, plasma, po, 400 mg
measure-name: Cmax

| compound | measure-name | meas-value |
| --- | --- | --- |
| CN(C)C[C@H]1CN(CCc2ccsc2)CC[C@]1(O)c1cccc(C(N)=O)c1 [Compound I] | Cmax | 318 ng/mL |
